# Tested on: COLO 205 colon
# experimental_protocol: NCI-60 one-dose screen, 48 h (100 = growth as untreated, 0 = no growth, -100 = all killed)
# test_settings: 10 µM unless noted
The panel holds about 83,000 compounds, 20% with a hit somewhere; the sample as a whole holds those more often.
If the reported growth equals or exceeds -70%, assign true. If not, assign false.

### Prompt Threshold query (growth >= -70%) on O=C(NN1C(=O)/C(=C/C=C/c2ccc([N+](=O)[O-])o2)SC1=S)c1ccncc1
### Response false

### Prompt Threshold query (growth >= -70%) on CN(C(=O)CN1C(=O)/C(=C/c2ccco2)SC1=S)C1CCS(=O)(=O)C1 (configuration not stated)
### Response true

### Prompt Threshold query (growth >= -70%) on O=C(Nc1ccc(F)cc1)Nc1nc2ccc([N+](=O)[O-])cc2s1
### Response false

### Prompt Threshold query (growth >= -70%) on Cc1ccccc1NC(=O)c1cccc(NC(=O)CCl)c1
### Response true

### Prompt Threshold query (growth >= -70%) on COc1ccc(N=Nc2c(N)nn3c(-c4cc5ccccc5oc4=O)ccnc23)cc1
### Response true

### Prompt Threshold query (growth >= -70%) on CCOC(=O)/C(F)=C/C1CC1C(c1ccccc1)c1ccccc1 (configuration not stated)
### Response true

### Prompt Threshold query (growth >= -70%) on Nc1ccc(-c2ccc3ncnc(N4CCc5cc(F)c(Cl)cc54)c3c2)cn1
### Response true

### Prompt Threshold query (growth >= -70%) on COc1cc(/C=C/C(=O)c2cnn(-c3cc(=O)[nH]c4ccc(Cl)cc34)c2C)cc(OC)c1OC
### Response true

* * *

# System: HCT-15 colon
# experimental_protocol: NCI-60 one-dose screen, 48 h (100 = growth as untreated, 0 = no growth, -100 = all killed)
# test_settings: 10 µM unless noted
About 83,000 compounds went through this panel and 20% of them were active in at least one assay; those are over-represented in the sample as a whole.
assay_readout: growth (%)
Respond with the bare value in %.

# annotated cases, reported growth shown
| compound | units_of_measure | growth |
| --- | --- | --- |
| COc1ccc2[nH]cc(-c3cc(N)n4nc(-c5c[nH]c6ccccc56)cc4n3)c2c1 | % | -79.2 |
| NS(=O)(=O)c1cccc(Nc2nc(SCC(=O)c3ccc(F)cc3)nc3ccccc23)c1 | % | 8.07 |
| COc1cccc(-c2ccc(/C=N/NC(=O)c3[nH]c4ccc(Br)cc4c3-c3ccccc3)s2)c1 | % | 3.37 |
| COc1ccc(-c2nc3ccccc3n2CC(=O)N=Nc2c(O)[nH]c3ccc(Br)cc23)cc1 | % | 58.1 |
| COc1ccc2c(c1)C(Sc1ccc(Cl)cc1)c1c(nc(N)c(C#N)c1N)O2 (centres undefined) | % | 58.9 |

Alright, here's another compound for you.
Input Cc1ccc(C(C(=O)NC2CCCCC2)N(Cc2ccccc2Cl)C(=O)c2ccc(CN3CCOCC3)o2)o1 (centres undefined) . Output growth: 98.3

* * *

# System: MCF7 breast
# experimental_protocol: NCI-60 one-dose screen, 48 h (100 = growth as untreated, 0 = no growth, -100 = all killed)
# test_settings: 10 µM unless noted
About 83,000 compounds went through this panel and 20% of them were active in at least one assay; those are over-represented in the sample as a whole. Activity calls are given as the source filed them. How the source made its calls: active means growth percent below 10; inactive means the rest.
assay_readout: growth

# annotated cases, reported growth shown
| compound | assay_readout | value_measured |
| --- | --- | --- |
| CC1=C(C)C(=O)C(NCCN2CCOCC2)=C(Br)C1=O | growth | 10.3% (inactive) |
| NC(=Nc1ccc(OCCCCCCCCn2cnnn2)cc1)c1ccccc1 | growth | 13.4% (inactive) |

Note to self: growth of CN(C)CCCc1ccc(Nc2cnn(C)c(=O)c2Cl)cc1 with MCF7 breast was 80.8% (inactive)

Note to self: growth of OC1CCC(Cn2c(C(F)(F)F)cc3c(Cl)ncnc32)CC1 (configuration not stated) with MCF7 breast was 91% (inactive)

Note to self: growth of COc1ccc(NC(=O)NN2C(=O)c3ccccc3N(C)C2c2ccc(OC)cc2)cc1 (configuration not stated) with MCF7 breast was 94.9% (inactive)

Note to self: growth of COc1ccc(-n2c(NC(=O)N3CCN(C)CC3)c(C#N)c3ccccc32)cc1 with MCF7 breast was 35.5% (inactive)

Note to self: growth of Cc1ccc(C(C(=O)NC2CCCCC2)N(Cc2ccccc2Cl)C(=O)c2ccc(CN3CCOCC3)o2)o1 (configuration not stated) with MCF7 breast was 95.3% (inactive)

Note to self: growth of OCCn1cc(-c2nc3ccc4[nH]ncc4c3c3c2CCCC3)cn1 with MCF7 breast was 39.3% (inactive)

Value source: PubChem BioAssay (NCI)
